Target: ToxB-GT (Clostridioides difficile, UniProt P18177)
Construct: gene tcdB
Test: biochemical
readout.kind: Kd

INSERT INTO assay_data (molecule, endpoint_result) VALUES
  ('CO[C@H]1O[C@H](CO)[C@@H](O)[C@H](O)[C@@H]1O [α-Methyl-mannose]', '> 100 µM');

----------
Target: ToxA-B1 (Clostridioides difficile)
Construct: gene tcdA
Assay: biochemical
pKd: −log10 of the molar value.
readout.kind: pKd

INSERT INTO measurements (molecule, endpoint_result) VALUES
  ('CO[C@H]1O[C@H](CO)[C@@H](O)[C@H](O)[C@@H]1O [α-Methyl-mannose]', '< 4.00');

----------
Target: ToxA-B3 (Clostridioides difficile, UniProt P16154)
Construct: gene tcdA
Assay: biochemical
pKd: −log10 of the molar value.
readout.kind: pKd

INSERT INTO measurements (smiles_structure, readout_kind, endpoint_result) VALUES
  ('CO[C@H]1O[C@H](CO)[C@@H](O)[C@H](O)[C@@H]1O', 'pKd', '< 4.00');

----------
Known Kd of a selection of molecules
Biological target: ToxB-B2 (Clostridioides difficile, UniProt P18177)
Construct: gene tcdB
Settings: read-out: Protein binding (KD)^a / ToxB-B2; glycan 160 nM to 100 μM
readout.kind: Kd (nM)

INSERT INTO measurements (molecule, readout_kind, endpoint_result) VALUES
  ('CC(=O)N[C@H]1[C@H](O[C@H]2[C@@H](O)[C@@H](CO)OC(O)[C@@H]2O)O[C@H](CO)[C@@H](O[C@@H]2O[C@@H](C)[C@@H](O)[C@@H](O)[C@@H]2O)[C@@H]1O[C@@H]1O[C@H](CO)[C@H](O)[C@H](O)[C@H]1O (stereo partly shown) [Lewis A]', 'Kd', 579),
  ('CC(=O)N[C@H]1[C@H](O[C@H]2[C@@H](O)[C@@H](CO)OC(O)[C@@H]2O)O[C@H](CO)[C@@H](O[C@@H]2O[C@@H](C)[C@@H](O)[C@@H](O)[C@@H]2O)[C@@H]1O[C@@H]1O[C@H](CO)[C@H](O)[C@H](O)[C@H]1O[C@@H]1O[C@@H](C)[C@@H](O)[C@@H](O)[C@@H]1O (stereo partly shown) [Lewis B]', 'Kd', 395),
  ('C[C@@H]1O[C@@H](O[C@H]2[C@H](O[C@H]3[C@H](O)[C@@H](O)C(O)O[C@@H]3CO)O[C@H](CO)[C@H](O)[C@@H]2O[C@H]2O[C@H](CO)[C@H](O)[C@H](O)[C@H]2O)[C@@H](O)[C@H](O)[C@@H]1O (stereo partly shown) [Blood group B]', 'Kd', 42900),
  ('CC(=O)N[C@H]1[C@H](O[C@H]2[C@@H](O)[C@@H](CO)OC(O)[C@@H]2O)O[C@H](CO)[C@@H](O[C@@H]2O[C@H](CO)[C@H](O)[C@H](O)[C@H]2O)[C@@H]1O[C@@H]1O[C@@H](C)[C@@H](O)[C@@H](O)[C@@H]1O (stereo partly shown) [Lewis X]', 'Kd', 501);
